Below, each entry is listed with its recorded kon.
MEASUREMENT TARGET: Recombinant human his-tagged IGF 1R extracellular domain protein (human) (UniProt P08069)
MEASUREMENT NOTES: SPR, captured antibody, pH 7.4
Quick reminder: number only, in M⁻¹ s⁻¹, skip the unit.

Exam item: Looking for the measured kon of VRDN-03098 (antibody, V domains shown) VH: QVQLVESGGGVVQPGRSLRLSCAASGFTFSSYSMHWVRQAPGKGLEWVAIIWFDGSSKYYADSVKGRFTISRDNSKNTLYLQMNSLRAEDTAVYYCARELGRRYFDIWGRGTLVTVSS VL: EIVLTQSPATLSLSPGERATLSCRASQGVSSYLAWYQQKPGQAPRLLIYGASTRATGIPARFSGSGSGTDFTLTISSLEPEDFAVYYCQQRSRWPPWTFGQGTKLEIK , can you help?
Marked response: 65900

***
Exam item: Form field: reported kon of VRDN-03106 (antibody, V domains shown) VH: QVQLVESGGGVVQPGRSLRLSCAASGFTFSDHYMDWVRQAPGKGLEWVAIIWFDGSSKYYPGSVKGRFTISRDNSKNTLYLQMNSLRAEDTAVYYCARELGRRYFDIWGRGTLVTVSS VL: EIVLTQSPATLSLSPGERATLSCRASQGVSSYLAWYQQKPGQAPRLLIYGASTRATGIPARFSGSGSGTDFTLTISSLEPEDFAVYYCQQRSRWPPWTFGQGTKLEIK
Marked response: 65100
